# System: TK-10 renal
# assay.name: NCI tumour cell line growth inhibition, 48 h
Catalogue of compounds with associated TGI

INSERT INTO measurements (compound, measurement_label, reported_value) VALUES
  ('CC(C)OP(=O)(O)c1ncc(-c2ccc(C(F)(F)F)cc2)c(NC2CCCCCC2)n1', 'TGI', '> 100 µM'),
  ('COc1ccc(C)cc1NC(=S)C#N', 'TGI', '> 100 µM'),
  ('C[C@H]1CC[P+](C)(c2ccccc2)C1 (stereo partly specified)', 'TGI', '> 100 µM'),
  ('C=C1C2=C(CCCC2)C(=O)OC12CCCCC2', 'TGI', '> 100 µM'),
  ('Cc1c(/C=N/NC(=S)N2CCCCC2)c(=O)n(-c2ccccc2)n1C', 'TGI', '> 100 µM'),
  ('C1CSCC2(COC2)CSCCSCC2(COC2)CS1', 'TGI', '> 100 µM');

Q: // lookup TGI for COC(=O)C(=O)Nc1cc2c3c(c1)Oc1cccc4c1C3(C)c1c(cccc1O2)O4
A: > 100 µM

Q: Tell me the measured TGI of CCOC(=O)CCC(NC(=O)c1ccc(NC(OC)c2nc3cc(C(F)(F)F)ccc3nc2-c2ccccc2)cc1)C(=O)OCC (stereo unspecified) , please.
A: 38.4 µM

----------
Each item that follows carries a reported TGI.
# Tested on: RPMI-8226 leukemia
# assay.name: NCI tumour cell line growth inhibition, 48 h

Example results:
INSERT INTO assay_data (compound, reported_value) VALUES
  ('NC1=NCN(C2OC(CO)C(O)C2O)C(=O)N1 (configuration not stated)', '159 µM'),
  ('N#C/C(=C(/O)CCl)c1nc2ccccc2o1', '7.87 µM'),
  ('CO/C(=N\N=C\c1ccc(Cl)c(Cl)c1)c1ccncc1', '> 10 µM');

Q: Can you look up the measured TGI of O=C(O)CCCCC1CCSS1 (configuration not stated) for me?
A: > 100 µM

Q: Bench note: what TGI did CCOC(=O)c1nc2ccc(C(F)(F)F)cc2nc1Nc1ccc(OC)cc1 show?
A: > 100 µM

----------
# System: HCC-2998 colon
# assay.name: NCI tumour cell line growth inhibition, 48 h
Rule: TGI under 40 µM gives not fulfilled, otherwise fulfilled.

Q: Reported TGI at or above 40 µM? C=CC(=O)Nc1cc2c(Nc3ccc(F)c(Cl)c3)ncnc2cc1C#CC(C)(C)N1CCN(C)CC1
A: not fulfilled

Q: API: above_or_equal(metric=TGI, cutoff=40 µM) for item CN(C)CCN1CCc2c([nH]c3ccccc23)C1c1cccnc1 (stereo not given)
A: fulfilled

Q: Dear colleague, could you confirm whether CC(=O)Nc1cccc(N2C(=O)/C(=C\c3cccc(Oc4ccccc4)c3)SC2c2ccccc2)c1 (stereo not given) has TGI at or above 40 µM?
A: fulfilled

Q: Please tell me: is the compound CC(=O)OCC1OC(n2c3c(cc(C#N)c2=S)CCCC3)C(OC(C)=O)C(OC(C)=O)C1OC(C)=O (stereo not given) at or over 40 µM in terms of TGI?
A: fulfilled

----------
# Test system: M14 melanoma
# assay.name: NCI tumour cell line growth inhibition, 48 h
measurement.label: TGI

Solved cases (3 shown):
INSERT INTO results (compound, reported_value) VALUES
  ('O=CN1N=C(c2cccc(Nc3ccnc4cc(Cl)ccc34)c2)CC1c1ccc(Cl)cc1 (configuration not stated)', '> 100 µM'),
  ('CCOc1ccc2cc(-c3nn(CC4CCNCC4)c4ncnc(N)c34)ccc2c1', '29.3 µM'),
  ('O=[N+]1[C@H](c2ccccc2)[C@H](c2ccccc2)N1[O-]', '29.6 µM');

Q: # query: TGI of entry COc1ccc(C2Cc3cc(OC)c(OC)c(OC)c3C2)cc1 (configuration not stated)
A: > 100 µM

Q: Would you mind telling me what TGI value was observed for C=C1C2=C(CCCC2)C(=O)OC12CCCCC2 ?
A: > 100 µM

Q: Recorded TGI of Nc1ccccc1C#Cc1ccccc1C#Cc1cccs1 , please.
A: 34.1 µM

Q: Looking for the measured TGI of O=C(O)CSc1n[nH]c(-c2ccco2)n1 , can you help?
A: > 100 µM

Q: For the compound CN1CC[C@H](c2c(O)cc(O)c3c(=O)cc(-c4ccccc4Cl)oc23)[C@H](O)C1 , what TGI is on record?
A: 0.293 µM

Data credit: PubChem BioAssay (NCI)
